The measurements presented in this section are drawn from ChEMBL document CHEMBL5252536.

- TEST_TARGET: Cytochrome P450 2D6 (Homo sapiens, UniProt P10635)
- Sequence (P10635 whole entry): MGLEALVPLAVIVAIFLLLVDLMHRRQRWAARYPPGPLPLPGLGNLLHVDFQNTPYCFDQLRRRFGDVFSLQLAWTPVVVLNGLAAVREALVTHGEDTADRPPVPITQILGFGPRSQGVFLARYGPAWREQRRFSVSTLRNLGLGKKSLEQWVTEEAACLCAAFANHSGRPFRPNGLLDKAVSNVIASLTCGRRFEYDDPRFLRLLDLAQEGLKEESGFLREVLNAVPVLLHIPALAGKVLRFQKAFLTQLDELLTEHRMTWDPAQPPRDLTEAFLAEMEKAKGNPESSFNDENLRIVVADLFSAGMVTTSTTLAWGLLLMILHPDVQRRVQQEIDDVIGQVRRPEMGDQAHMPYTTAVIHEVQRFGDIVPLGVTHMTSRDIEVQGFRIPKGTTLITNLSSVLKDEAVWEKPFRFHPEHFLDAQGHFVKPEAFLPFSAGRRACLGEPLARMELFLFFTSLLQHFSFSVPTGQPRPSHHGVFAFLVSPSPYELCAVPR
PARAMETER: IC50

Specify IC50 for COc1ccc(CNC(=O)c2sc3nnc(C)c(C)c3c2N)cc1F , system Cytochrome P450 2D6 (Homo sapiens, UniProt P10635).
> 30 µM

====

- TEST_TARGET: CYP3A4 (printed CYP34A) (Homo sapiens, UniProt P08684)
- Sequence (P08684 whole entry): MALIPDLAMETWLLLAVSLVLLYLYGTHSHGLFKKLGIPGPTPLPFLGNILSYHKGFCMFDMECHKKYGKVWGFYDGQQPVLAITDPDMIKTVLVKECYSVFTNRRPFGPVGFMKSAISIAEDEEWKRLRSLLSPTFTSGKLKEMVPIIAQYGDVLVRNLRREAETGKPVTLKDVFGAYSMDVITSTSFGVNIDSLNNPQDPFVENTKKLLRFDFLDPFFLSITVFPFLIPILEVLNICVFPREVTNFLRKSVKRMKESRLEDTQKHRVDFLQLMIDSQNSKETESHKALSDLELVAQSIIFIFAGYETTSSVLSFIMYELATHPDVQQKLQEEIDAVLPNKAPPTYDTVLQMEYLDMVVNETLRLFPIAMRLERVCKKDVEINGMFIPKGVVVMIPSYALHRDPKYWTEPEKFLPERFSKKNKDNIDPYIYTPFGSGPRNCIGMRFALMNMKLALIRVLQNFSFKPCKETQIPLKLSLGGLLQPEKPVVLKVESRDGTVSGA
- ASSAY_TEXT: Activation of CYP34A in human hepatocyte using midazolam as substrate preincubated for 5 days followed by substrate addition and measured after 1 hr by LC-MS/MS analysis relative to control
- Type: ADME, cell-based
- CONDITION_PARAMETERS: hepatocytes, probe midazolam, time 121 hrs
PARAMETER: Emax at 1 h

Give measured Emax at 1 h for COc1ccc(CNC(=O)c2sc3nnc(C)c(C)c3c2N)cc1F (CYP3A4 (printed CYP34A) (Homo sapiens, UniProt P08684)).
≤ 1%
